- assay name: E. coli acrAB mutant growth effects, primary screen, E. coli filamentation inducers, strain DRC39, OD650, 24 h (AID 1178);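 also: growth measured as culture turbidity by optical density at 650 nm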
- assay conditions: higher = more signal, called active from +8 up or from −8 down
measured metric: z-score
Answer field: number only, no words.

molecule	measured metric	experimental result
[N-]=[N+]=Nc1ccccc1C[C@]1(C(=O)O)N=C(c2ccc(OCCCO)cc2)O[C@H]1c1ccccc1	z-score	-0.115
COc1ccc([Si](C)(C)[C@@H]2[C@@H](CC(=O)N3Cc4ccccc4C[C@H]3CO)O[C@]3(C(=O)N(Cc4ccc(N5CCC5=O)cc4)c4ccccc43)[C@H]2C)cc1	z-score	0.7
C=CCC(OC(C)=O)[C@@H]1[C@@H](N(Cc2cccc3ccccc23)C(=O)c2cccc3ccccc23)c2cc(OCCCO)ccc2N1C(=O)c1ccc2ccccc2c1 (stereo partly specified)	z-score	0.745
COc1ccc(CCNC(=O)[C@@]2(Cc3ccccc3I)c3ccccc3C(=O)N(Cc3ccccc3Cl)[C@H]2c2ccc(CO)cc2)cc1	z-score	-0.432
COC(=O)[C@@]1(Cc2ccccc2CN=[N+]=[N-])N=C(c2ccc(OCCCO)cc2)O[C@H]1c1ccccc1	z-score	0.759

The molecule listed as COc1ccc(C(O)C2C=CC3C(=O)N(c4ccccc4)C(=O)C3N2Nc2ccccc2)cc1 (stereo unspecified) shows z-score equal to -0.519

The molecule listed as CN(C)CCCCCCNC(=O)[C@@H]1C[C@@H]2C(=O)N[C@@H](CCCCN)C(=O)N2[C@@H]1c1ccc(O)cc1 shows z-score equal to 0.739

The molecule listed as COc1ccc(C#Cc2ccc3c(c2)[C@]2(C(=O)N3)[C@H](C(=O)N3CCCCCCC3)[C@H]3C(=O)O[C@H](c4ccccc4)[C@H](c4ccccc4)N3[C@@H]2c2ccc(O)cc2)cc1 shows z-score equal to -0.45

The molecule listed as CN(C)C(=O)[C@]1(CCS(=O)(=O)c2ccccc2)N=C(c2ccc(OCCCO)cc2)O[C@@H]1c1ccccc1 shows z-score equal to 0.582

The molecule listed as Cc1cccc([C@H]2C[C@H]3C(Br)=C[C@@H]2C(=O)[C@]32CO2)c1 shows z-score equal to 0.906

The molecule listed as C=CCN1C(=O)[C@]2(O[C@H](CCO)[C@@H]([Si](C)(C)c3ccc(OC)cc3)[C@@H]2C)c2cc(NC(=O)c3ccc(OC)cc3)ccc21 shows z-score equal to 0.626

The molecule listed as COc1cc(NN2C(C(O)C3CCCCC3)C=CC3C(=O)N(C)C(=O)C32)cc(OC)c1OC (stereo unspecified) shows z-score equal to -0.276

The molecule listed as COc1cccc(/C=C(\C#N)C(=O)Nc2c(C)n(C)n(-c3ccccc3)c2=O)c1 shows z-score equal to 0.575

====

Form field: composite z-score (one value per entry).
- Test system: XIP peptide (Xip251-270)
- assay name: small-molecule binders of XIP peptide, primary screen, biochemical, small-molecule microarray, fluorescence 635/667 nm, 0.5 µg/mL protein (AID 1183)
- assay conditions: small-molecule microarray binding, fluorescence 635 nm; higher = more signal
Answer field: number only, no words.

molecule	composite z-score
CO[C@H]1O[C@H](CO)[C@@H](OC(=O)CCc2ccccc2)[C@H](OC(=O)c2cc3ccccc3[nH]2)[C@H]1OC(=O)c1cc2ccccc2[nH]1	0.637
CN1C=C(C(=O)OCCS(C)(=O)=O)C(C(=O)OCCS(C)(=O)=O)=CC(c2ccc(CO)cc2)=CC1c1cccs1 (centres undefined)	0.496
COC(=O)[C@@]1(Cc2ccc(F)cc2)[C@H]2c3cc(C(=O)N4CCCC4)n(C)c3C[C@H]2CN1C(=O)c1ccccc1	0.664
CCOC(=O)C=Cc1ccccc1O	0.322
COc1ccc(C(O)C2C=CC3C(=O)N(c4ccccc4)C(=O)C3N2Nc2ccccc2F)cc1 (centres undefined)	0.857
C=CCNC(=O)[C@H]1[C@@H]2C(=O)O[C@@H](c3ccccc3)[C@@H](c3ccccc3)N2[C@@H](c2ccc(OCCO)cc2)[C@]12C(=O)N(C(=O)OCCOC)c1ccc(C#Cc3ccc(OC)cc3)cc12	0.719

The molecule listed as Cc1ccccc1C(O)C1C=CC2C(=O)NC(=O)C2N1Nc1ccc(Cl)cc1Cl (centres undefined) shows composite z-score equal to 0.693

The molecule listed as COCCCNC(=O)[C@@]1(Sc2ccc(C)cc2)CC(=O)N(C(C)C)[C@@H]1c1ccc(CO)cc1I shows composite z-score equal to 0.609

====

- subject of test: Torsin-1A-interacting protein 1 (Homo sapiens) (UniProt Q5JTV8)
- Sequence (Q5JTV8 whole entry, looked up): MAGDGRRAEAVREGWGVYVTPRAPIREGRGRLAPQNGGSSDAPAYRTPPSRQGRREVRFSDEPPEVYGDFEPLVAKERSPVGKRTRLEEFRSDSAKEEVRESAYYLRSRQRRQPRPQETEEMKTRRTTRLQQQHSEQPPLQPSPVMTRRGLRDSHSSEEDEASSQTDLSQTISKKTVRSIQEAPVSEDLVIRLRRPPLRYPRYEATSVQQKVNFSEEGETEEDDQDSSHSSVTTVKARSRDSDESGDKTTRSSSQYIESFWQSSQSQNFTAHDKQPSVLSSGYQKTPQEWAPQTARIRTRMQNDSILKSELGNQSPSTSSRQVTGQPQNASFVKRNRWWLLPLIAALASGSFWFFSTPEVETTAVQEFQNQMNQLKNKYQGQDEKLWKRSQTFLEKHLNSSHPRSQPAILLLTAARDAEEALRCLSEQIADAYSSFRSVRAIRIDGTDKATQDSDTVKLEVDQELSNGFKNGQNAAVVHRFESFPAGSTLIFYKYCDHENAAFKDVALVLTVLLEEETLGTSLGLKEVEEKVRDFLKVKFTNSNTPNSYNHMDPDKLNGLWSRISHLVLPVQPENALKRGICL
- assay name: LAP1 binders from COS7 cell lysate, primary screen, small-molecule microarray, 635/667 nm fluorescence (AID 1116)
- assay conditions: COS7-hLAP1 lysate binding, 635 nm fluorescence, higher = more signal
composite z-score vs 1: at or above is t, below is f.

Sample answers from the record:
compound	group
O=C1C2C=CC(C(O)c3ccco3)N(Nc3ccccc3)C2C(=O)N1c1ccccc1 (stereo not drawn)	f
COc1cc2c(cc1O)C(c1cccs1)N(Cc1sc3ccccc3c1Cl)CC2 (stereo not drawn)	t
CC(C)[Si]1(C(C)C)OCc2cc(-c3ccc(-c4ccc(Cl)c(Cl)c4)o3)nc(CCc3ccccc3)c21	f
[N-]=[N+]=Nc1ccccc1[C@@H]1OC(c2ccc(OCCCO)cc2)=N[C@]1(Cc1ccccc1)C(=O)NCc1ccccc1	t
C=C[C@@H](OC)[C@H](OC(=O)Nc1ccc(OC)cc1)c1ccc(OC)c(O)c1	f
C=CCN1C(=O)[C@]2(O[C@H](CCO)[C@@H]([Si](C)(C)c3ccc(OC)cc3)[C@@H]2C)c2cc(N3C(=O)COc4ccccc43)ccc21	f
CC(C)C(=C=CC[C@@H](O)c1cccc(OCCO)c1)C[C@@H](O)c1ccccn1	t

Is composite z-score for O=C1C[C@@](C(=O)NCc2ccccc2)(c2ccc([N+](=O)[O-])cc2)[C@@H](c2ccc(CO)cc2I)N1CC12CC3CC(CC(C3)C1)C2 at or above 1?
f

====

- subject of test: Focal adhesion kinase 1 (Homo sapiens) (UniProt Q05397)
- Sequence (Q05397 whole entry, looked up): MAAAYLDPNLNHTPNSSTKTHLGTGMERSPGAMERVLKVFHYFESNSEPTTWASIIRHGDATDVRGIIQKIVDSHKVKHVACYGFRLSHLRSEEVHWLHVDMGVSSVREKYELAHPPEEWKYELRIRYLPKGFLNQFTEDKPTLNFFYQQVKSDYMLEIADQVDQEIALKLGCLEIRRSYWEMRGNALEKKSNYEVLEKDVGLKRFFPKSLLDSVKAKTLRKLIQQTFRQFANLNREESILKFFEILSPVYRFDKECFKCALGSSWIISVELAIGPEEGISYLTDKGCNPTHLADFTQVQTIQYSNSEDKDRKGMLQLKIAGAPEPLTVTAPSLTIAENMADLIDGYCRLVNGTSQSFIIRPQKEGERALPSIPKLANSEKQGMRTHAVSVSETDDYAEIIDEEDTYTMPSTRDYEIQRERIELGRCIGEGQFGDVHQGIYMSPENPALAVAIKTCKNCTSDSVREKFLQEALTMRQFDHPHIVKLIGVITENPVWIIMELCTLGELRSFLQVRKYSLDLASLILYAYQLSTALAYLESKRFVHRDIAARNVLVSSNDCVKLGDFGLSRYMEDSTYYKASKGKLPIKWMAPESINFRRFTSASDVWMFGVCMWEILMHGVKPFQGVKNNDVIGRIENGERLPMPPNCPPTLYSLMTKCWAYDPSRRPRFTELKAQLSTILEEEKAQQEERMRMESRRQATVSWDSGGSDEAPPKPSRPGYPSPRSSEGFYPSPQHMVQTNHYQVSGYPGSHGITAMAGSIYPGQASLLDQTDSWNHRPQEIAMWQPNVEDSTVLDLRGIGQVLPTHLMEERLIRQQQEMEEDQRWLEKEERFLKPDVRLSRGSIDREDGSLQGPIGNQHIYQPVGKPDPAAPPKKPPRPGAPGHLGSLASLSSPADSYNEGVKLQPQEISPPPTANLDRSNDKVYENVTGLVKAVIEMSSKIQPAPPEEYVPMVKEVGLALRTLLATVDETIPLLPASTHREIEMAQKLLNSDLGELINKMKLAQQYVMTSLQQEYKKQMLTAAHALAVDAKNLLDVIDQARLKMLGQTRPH
- assay name: small-molecule microarray binders of FAK, primary screen, biochemical, 635/667 nm fluorescence, BSA, DTT (AID 1130);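 also: composite of spot emission at 667 nm and signal to noise over triplicate slides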
- assay conditions: PTK2 binding, 635 nm fluorescence, higher = more signal
composite z-score vs 0.5: at or above is T, below is F.

Sample answers from the record:
molecule	subject of test	group
C=C(/C(=C/C[C@H](OC(=O)c1ccncc1)c1cccc(OCCO)c1)c1cnc2ccccc2c1)C(C)C	Focal adhesion kinase 1 (Homo sapiens) (UniProt Q05397)	T
COCCCNC(=O)[C@@]1(c2ccc([N+](=O)[O-])cc2)CC(=O)N(C(C)C)[C@@H]1c1ccc(CO)cc1	Focal adhesion kinase 1 (Homo sapiens) (UniProt Q05397)	T
C=C(C(=O)CC[C@@H](OC(=O)c1ccccc1-c1ccccc1C(=O)O)c1ccccc1OCCO)C(C)C	Focal adhesion kinase 1 (Homo sapiens) (UniProt Q05397)	F
CCOC(=O)C1=C[C@@H](c2ccccc2)N(S(=O)(=O)c2ccc(C)cc2)[C@H]1c1ccccc1	Focal adhesion kinase 1 (Homo sapiens) (UniProt Q05397)	T

Is composite z-score for [N-]=[N+]=NC[C@H](Cc1ccccc1)NC(=O)c1ccccc1 at or above 0.5?
F

Is composite z-score for Cc1ccc(N2C(=O)c3ccccc3[C@](C)(C(=O)NCc3ccccc3)[C@@H]2c2ccc(CO)cc2)nc1 at or above 0.5?
T

Is composite z-score for CC(=O)N1CC(C(O)C2C=CC3C(=O)NC(=O)C3N2Nc2ccc(Cl)cc2Cl)c2ccccc21 (configuration not stated) at or above 0.5?
F

Is composite z-score for CN1C(=O)C2C=CC(C(O)c3ccc(I)cc3)N(Nc3ccccc3)C2C1=O (configuration not stated) at or above 0.5?
F

Is composite z-score for COCC1C2CC[C@H]3C(OCc4ccc(OC)cc4)OC[C@]4(C)[C@H]3C2=C(CN4C(=O)OC(C)(C)C)[C@H](C)C1COC (some centres not stated) at or above 0.5?
T

====

Form field: composite z-score (one value per entry).
- subject of test: Dickkopf-related protein 1 (Homo sapiens) (UniProt O94907)
- Sequence (O94907 whole entry, looked up): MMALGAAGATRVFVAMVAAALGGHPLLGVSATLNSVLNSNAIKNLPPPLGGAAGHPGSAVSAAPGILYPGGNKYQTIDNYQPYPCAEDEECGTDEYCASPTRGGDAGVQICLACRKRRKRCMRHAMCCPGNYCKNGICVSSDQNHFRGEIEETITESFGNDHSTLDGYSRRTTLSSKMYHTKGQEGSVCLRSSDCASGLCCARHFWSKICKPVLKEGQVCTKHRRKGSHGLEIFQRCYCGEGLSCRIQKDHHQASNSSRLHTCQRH
- assay name: DKK1 binders on small-molecule microarrays, primary screen, biochemical, small-molecule microarray, 635 nm fluorescence scan (AID 1106);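 also: score merges emission near 667 nm with signal to noise over three replicate slides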
- assay conditions: DKK1 binding, higher = more signal
Answer field: number only, no words.

A selection of reference data follows.
compound	composite z-score
CN1C(=O)C2C=CC(C(O)c3cc(C(F)(F)F)cc(C(F)(F)F)c3)N(NC(=O)OC(C)(C)C)C2C1=O (centres undefined)	-0.868
CN(C)CCCCCCNC(=O)[C@@H]1C[C@@H]2C(=O)N[C@@H](CCCCN)C(=O)N2[C@@H]1c1ccc(O)cc1	2.29
CC(C)OC(=O)CC(=O)CC(O)c1ccc([N+](=O)[O-])cc1 (centres undefined)	-0.953

The compound listed as O=C1OCCC=C[C@H]2OC34C=CCN(c5ccc(Cl)cc5)C(=O)[C@H]3N(CCCCCCO)C(=O)[C@@H]4C12 (some centres undefined) shows composite z-score equal to -0.712
